protocol-details: protein stability index of a GFP-peptide fusion (yeast GPS) (PSI 1-4); higher = more stable; sorted into four equal gates, so the index is relative within each strain
condition-summary: doa10∆
Please map values of protein stability index to classes as shown: class 0 (below 2), class 1 (2 to below 3), class 2 (3 or more)

-- ask # bin label for VKSEVDVQVDAEEKREA [ITC1]
-- reply class 2

-- ask # bin label for RKANREEKLKANKEKKK [RPL24A]
-- reply class 1

-- ask # bin label for QRTAQDRVQQDSEDEDS [YML031W/NDC1]
-- reply class 1

-- ask # bin label for MKYTQYPNSSKLKRNSD [LIN1]
-- reply class 2

-- ask # bin label for RSSSASNEFVPNTSDNN [SWI1]
-- reply class 1

-- ask # bin label for LSFGTATSDNKTTNTTP [YJL041W/NSP1]
-- reply class 1

-- ask # bin label for IGLPRHSLAYLLENFAN [RRP6]
-- reply class 0

-- ask # bin label for LPHSPLWELALAFIPNI [YML031W/NDC1]
-- reply class 0

-- ask # bin label for YSPIEKESPWKILMYQY [RRP6]
-- reply class 0

-- ask # bin label for INDAGKAKKLIQSLPPT [RPL38]
-- reply class 1

-- ask # bin label for PIAAPKKPRKPRQTKKA [PGD1]
-- reply class 1

-- ask # bin label for DQQSPWLLRLELDRAAM [RPO21]
-- reply class 0

====

protocol-details: protein stability index of a GFP-peptide fusion (yeast GPS) (PSI 1-4); higher = more stable; sorted into four equal gates, so the index is relative within each strain
condition-summary: san1∆
# if value of protein stability index reaches 3, tag 1; if it stays below, tag -1

sequence_string="AVAHHTDCKFIRVSGAE [RPT6]" assigned_label=1
sequence_string="ENGQRDLDRIAAQTLEE [RPS19A]" assigned_label=1
sequence_string="EATSNTNSEDKLSKVQL [MED4]" assigned_label=-1
sequence_string="KFFMKHGLILELQKIWQ [SRB5]" assigned_label=1
sequence_string="QNTVPNVLNQINQIFSP [GAL11]" assigned_label=-1

-- ask protein stability index >= 3 for YDLVDNKGAKAEDVALN [NAS6] ?
-- reply -1

-- ask protein stability index >= 3 for NRAMEYDALLSINVHSN [RET1] ?
-- reply -1

-- ask protein stability index >= 3 for EKTLGKSLSKAISTGAK [RPN7] ?
-- reply 1

-- ask protein stability index >= 3 for CNSIINKLGALKTNFET [RPB11] ?
-- reply -1

====

Known protein stability index of a selection of sequences
protocol-details: protein stability index of a GFP-peptide fusion (yeast GPS) (PSI 1-4); higher = more stable; sorted into four equal gates, so the index is relative within each strain
condition-summary: san1∆
Note: the reply should be a number with no unit written.

sequence_string="RHLEKEGIIKPISKHSK [RPS25A]" observed=2.96
sequence_string="MAQRVTFRRRNPYNTRS [RPL34A]" observed=1.54
sequence_string="MTIDLEPIEESSQNNSE [IRR1]" observed=2.67
sequence_string="LRSDIPCLSRSCTKCPQ [DIS3]" observed=2.91
sequence_string="VVGQLFQIDNDNIRYAT [SMC2]" observed=2.65
sequence_string="VAQLKPFFKYIDDANVT [RPC37]" observed=2.9

-- ask Report measured protein stability index; entry is DSEGSIKQTSDESTIKR [ECM29]
-- reply 3.43

-- ask Report measured protein stability index; entry is EKRIQYAKDILQKEFLP [RPB2]
-- reply 2.06

-- ask Report measured protein stability index; entry is KALLFFNNEKETEKFAL [RPN12]
-- reply 3.31

-- ask Report measured protein stability index; entry is KTDFAKIINKPNELSQI [RPC82]
-- reply 2.84

-- ask Report measured protein stability index; entry is LQVLKRERDGIKEDIEK [SMC1]
-- reply 3.15

====

protocol-details: protein stability index of a GFP-peptide fusion (yeast GPS) (PSI 1-4); higher = more stable; sorted into four equal gates, so the index is relative within each strain
condition-summary: ubr1∆
value-kind: protein stability index
Note: the reply should be a number with no unit written.

sequence_string="SLLESGSEILGDLKLQV [RPO21]" value_kind="protein stability index" observed=3.02
sequence_string="RSAWNNNNDNDANRNAN [GRR1]" value_kind="protein stability index" observed=2.7
sequence_string="NGCSGADVKGVCTEAGM [RPT6]" value_kind="protein stability index" observed=3.1
sequence_string="SIGKNPFNKPNIETGEN [SWI3]" value_kind="protein stability index" observed=2.97
sequence_string="TRDETVSLIKKYKLISR [YML103C/NUP188]" value_kind="protein stability index" observed=2.41

-- ask Report measured protein stability index; entry is YSIALSNVAAIFKGIGG [GAL11]
-- reply 1.48

-- ask Report measured protein stability index; entry is LPHSPLWELALAFIPNI [YML031W/NDC1]
-- reply 1.08

-- ask Report measured protein stability index; entry is NLKQANNVAYGKKRFRV [SMC4]
-- reply 2.31

-- ask Report measured protein stability index; entry is MSTKAQNPMRDLKIEKL [RPL11B]
-- reply 3.6

-- ask Report measured protein stability index; entry is AFSYPRMYEEASGKEVE [RPN2]
-- reply 1.35

====

Known protein stability index of a selection of sequences
protocol-details: protein stability index of a GFP-peptide fusion (yeast GPS) (PSI 1-4); higher = more stable; sorted into four equal gates, so the index is relative within each strain
condition-summary: san1∆
Note: the reply should be a number with no unit written.

A selection of reference data follows.
sequence_string="NLFGATANANKPAFSFG [YJL041W/NSP1]" value_kind="protein stability index" observed=3.14
sequence_string="LLWTPKKLEITSDGALS [RPR2]" value_kind="protein stability index" observed=2.61
sequence_string="ECGTGTTIHTFNRKENP [RPN14]" value_kind="protein stability index" observed=2.21
sequence_string="TDIEEGMRVGVDRSKYN [RPT1]" value_kind="protein stability index" observed=3.07
sequence_string="LRKIQALRDVKNNNNAN [GAL11]" value_kind="protein stability index" observed=3.15

-- ask Report measured protein stability index; entry is KYNAFIASEVLIKQVPR [RPL1A]
-- reply 1.39

-- ask Report measured protein stability index; entry is NYFVDTDLKKIIKANQL [RET1]
-- reply 3.01

-- ask Report measured protein stability index; entry is HPAYLFKGLETPLKARQ [YLR018C/POM34]
-- reply 1.36

-- ask Report measured protein stability index; entry is AKSTVETFISSMTATAD [RIP1]
-- reply 2.93

====

protocol-details: protein stability index of a GFP-peptide fusion (yeast GPS) (PSI 1-4); higher = more stable; sorted into four equal gates, so the index is relative within each strain
condition-summary: doa10∆
Known protein stability index of a selection of sequences
Note: the reply should be a number with no unit written.

A selection of reference data follows.
sequence_string="NNDQKRQQAYKTAQTLD [YJL041W/NSP1]" observed=3.14
sequence_string="IFQAKRNSNPENTVGLI [RPN10]" observed=3.17
sequence_string="TDWDPQFNAITGLNGSG [SMC2]" observed=2.94
sequence_string="NSTGHSSNTNNNTNNNN [SWI1]" observed=3.48
sequence_string="VQGLLQNAAANAEAKGL [RPL17A]" observed=2.3
sequence_string="KALPIRRDDEVLVVRGS [RPL26A]" observed=3.06

// below: protein stability index requested for another sequence
-- ask Report measured protein stability index; entry is GIKPPKGVLLYGPPGTG [RPT4]
-- reply 2.73

====

protocol-details: protein stability index of a GFP-peptide fusion (yeast GPS) (PSI 1-4); higher = more stable; sorted into four equal gates, so the index is relative within each strain
condition-summary: san1∆
value-kind: protein stability index
Note: the reply should be a number with no unit written.

-- ask Report measured protein stability index; entry is MSLTTAAPLLALLRENQ [RPN2]
-- reply 2.8

-- ask Report measured protein stability index; entry is DLLHPTAASEARKHKLK [RPS27A]
-- reply 2.53

-- ask Report measured protein stability index; entry is LIIIAANTPVLRKSELE [RPL30]
-- reply 2.31

-- ask Report measured protein stability index; entry is DGIFSSKTDNIEDPNLS [YMR153W/NUP53]
-- reply 2.69

-- ask Report measured protein stability index; entry is SPPCYIIDHIPGHSLLL [SNF5]
-- reply 2.3

-- ask Report measured protein stability index; entry is EINYAFSMDEEFKNMDC [SIR3]
-- reply 3.22

-- ask Report measured protein stability index; entry is LLFINSSKLVDVYTLPS [YML103C/NUP188]
-- reply 1.98

====

Known protein stability index of a selection of sequences
protocol-details: protein stability index of a GFP-peptide fusion (yeast GPS) (PSI 1-4); higher = more stable; sorted into four equal gates, so the index is relative within each strain
condition-summary: ubr1∆
Note: the reply should be a number with no unit written.

A selection of reference data follows.
sequence_string="FSFGAKANEKKESDESK [YJL041W/NSP1]" value_kind="protein stability index" observed=3.18
sequence_string="EESWEKVVEFAITHMID [SCL1]" value_kind="protein stability index" observed=2.91
sequence_string="KDLTLCRYSCLALERMV [YCS4]" value_kind="protein stability index" observed=1.79
sequence_string="SPSTSANVPSTATTGKR [RPN4]" value_kind="protein stability index" observed=2.65
sequence_string="SLKALASKYNCDKSVCR [RPL40A]" value_kind="protein stability index" observed=2.94

-- ask Report measured protein stability index; entry is AVQNESVSSPIELNFDA [QCR2]
-- reply 3.06

-- ask Report measured protein stability index; entry is SLGSSSTTASGTTATGT [YGR119C/NUP57]
-- reply 3.18

-- ask Report measured protein stability index; entry is ASSLRFGNSLSNTVNAN [YDL088C/ASM4]
-- reply 2.89
